Tested target: T1, CLDN6 endogenously expressed by human cancer cell lines (ARK2, OVCA429) (human, UniProt P56747 1-220)
T1 construct: Untagged endogenous protein; also called Endogenous CLDN6+
T1 sequence: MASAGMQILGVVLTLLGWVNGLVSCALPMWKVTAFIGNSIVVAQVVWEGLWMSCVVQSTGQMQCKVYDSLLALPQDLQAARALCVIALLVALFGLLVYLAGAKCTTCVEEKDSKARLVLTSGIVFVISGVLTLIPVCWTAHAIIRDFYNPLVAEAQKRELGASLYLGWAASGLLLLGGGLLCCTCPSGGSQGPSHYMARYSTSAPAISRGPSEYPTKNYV
Method notes: FACS, 1.5 µg Ab, ARK2 cells

{"Binder": "AB1-Chim (antibody, V domains shown, 'chim' is the pre-humanized form (parental variable regions); also called pre-humanized (chimeric) form of AB1) VH: QVQLQQSAAELARPGASVKMSCKASGYTFTTYTMHWVKQRPGQGLEWIGFINPSSGYTDYNQKFKDRTTLTADKSSSTVYMQLSSLTSEDSAVYYCANGDYYVAYWGQGTLVTVSA VL: QIVLTQSPAIMSASLGERVTMTCTASSSVSSTYFHWYQQKPGSSPKLWIYSTSNLASGVPRRFSGSASGTSYSLTISSMEAEDAATYYCHQYHRSPLTFGAGTKLELK", "FACS fluorescence": 51900}
{"Binder": "AB11-2 (antibody, V domains shown, also called Humanized AB 11-2) VH: EVQLVESGGGLVQPGGSLRLSCAASGFTFSSFGMHWVRQAPGKGLEWVAYISSDSRTIYYADSVKGRFTISRDNAKNSLYLQMNSLRAEDTAVYYCARDYGRTYEAYWGQGTLVTVSS VL: DIVMTQSPDSLAVSLGERATINCRASKSVSTSGYSYIHWYQQKPGQPPKLLIYLASNLESGVPDRFSGSGSGTDFTLTISSLQAEDVAVYYCQHSRELPLTFGQGTKLEIK", "FACS fluorescence": 1940}
{"Binder": "AB4-10 (antibody, V domains shown, Humanized; also called Humanized AB 4-10) VH: QVQLVQSGAEVKKPGASVKMSCKASGYTFTSYTMHWIRQAPGQGQEWIGYINPSSTYTHYIKKFKDRATLTADTSTSTAYMELSSLRSEDTAVYYCSRGELGGFAYWGQGTLVTVSS VL: DVVMTQSPLSLPVTLGQPASISCRSSQSLVHSDGNTYLNWYQQRPGQSPRLLIYKVSNRFSGVPDRFSGSGSGTDFTLKISRVEAEDVGVYYCSQSTHVPYTFGQGTKLEIK", "FACS fluorescence": 20200}
